Cited source: ChEMBL document CHEMBL3769385

- assayed_system: 5-hydroxytryptamine receptor 2C (Homo sapiens) (UniProt P28335)
- protocol_text: Agonist activity at recombinant human 5HT2C-INI receptor expressed in Flp-In-293 cells assessed as calcium flux by FLIPR assay relative to 5-HT
- Assay type: functional, cell-based

compound	Emax, %
NCC1CC1c1c(OCCF)ccc(F)c1Cl (stereo in doubt; (-)-21g)	80
COc1cc(Cl)c(Cl)cc1C1CC1CN (stereo in doubt; (-)-20e)	89
COc1cc(F)c(F)cc1C1CC1CN (single isomer, unassigned; (+))	108
NCC1CC1c1c(OCCF)ccc(Cl)c1F (single isomer, unassigned; (-))	80
COc1ccc(F)c(F)c1C1CC1CN (stereo in doubt; (-)-20b)	108
NCC1CC1c1cc(Cl)c(Cl)cc1OCCF (single isomer, unassigned; (+))	87
NCC1CC1c1cc(Cl)c(F)cc1OCCF (single isomer, unassigned; (+))	87
C=CCOc1ccc(Cl)c(Cl)c1C1CC1CN (stereo in doubt; (-)-22f)	93
NCC1CC1c1cc(F)c(F)cc1OCCF (single isomer, unassigned; (+))	95
C=CCOc1cc(Cl)c(Cl)cc1C1CC1CN (stereo in doubt; (-)-22e)	84
COc1ccc(Cl)c(Cl)c1C1CC1CN (single isomer, unassigned; (-))	104
C=CCOc1ccc(F)c(Cl)c1C1CC1CN (single isomer, unassigned; (-))	89
NCC1CC1c1c(OCCF)ccc(Cl)c1Cl (single isomer, unassigned; (+))	90
C=CCOc1cc(Cl)c(Cl)cc1C1CC1CN (single isomer, unassigned; (+))	88
COc1ccc(F)c(Cl)c1C1CC1CN (single isomer, unassigned; (-))	96
C=CCOc1ccc(F)c(F)c1C1CC1CN (single isomer, unassigned; (-))	89
C=CCOc1ccc(F)c(Cl)c1C1CC1CN (single isomer, unassigned; (+))	92
NCC1CC1c1c(OCCF)ccc(Cl)c1Cl (single isomer, unassigned; (-))	85
C=CCOc1cc(F)c(Cl)cc1C1CC1CN (single isomer, unassigned; (-))	77
NCC1CC1c1cc(F)c(F)cc1OCCF (single isomer, unassigned; (-))	73
NCC1CC1c1c(OCCF)ccc(F)c1F (single isomer, unassigned; (-))	78
C=CCOc1ccc(F)c(F)c1C1CC1CN (single isomer, unassigned; (+))	100
COc1ccc(F)c(F)c1C1CC1CN (single isomer, unassigned; (+))	108
COc1cc(F)c(F)cc1C1CC1CN (single isomer, unassigned; (-))	104
C=CCOc1ccc(Cl)c(F)c1C1CC1CN (stereo in doubt; (-)-22d)	87
COc1cc(Cl)c(Cl)cc1C1CC1CN (single isomer, unassigned; (+))	95
COc1ccc(Cl)c(F)c1C1CC1CN (single isomer, unassigned; (-))	93
COc1ccc(Cl)c(Cl)c1C1CC1CN (stereo in doubt; (+)-20f)	98
C=CCOc1ccc(Cl)c(F)c1C1CC1CN (single isomer, unassigned; (+))	90
NCC1CC1c1c(OCCF)ccc(F)c1Cl (single isomer, unassigned; (+))	86
COc1cc(F)c(Cl)cc1C1CC1CN (single isomer, unassigned; (+))	97
NCC1CC1c1cc(Cl)c(Cl)cc1OCCF (single isomer, unassigned; (-))	75
C=CCOc1ccc(Cl)c(Cl)c1C1CC1CN (single isomer, unassigned; (+))	70
COc1ccc(Cl)c(F)c1C1CC1CN (single isomer, unassigned; (+))	92
NCC1CC1c1c(OCCF)ccc(Cl)c1F (stereo in doubt; (+)-21d)	86

---

- assayed_system: 5-hydroxytryptamine receptor 2B (Homo sapiens)
- protocol_text: Agonist activity at recombinant human 5HT2B receptor expressed in Flp-In-293 cells assessed as calcium flux by FLIPR assay relative to 5-HT
- Type: functional, cell-based
Entries and their measured Emax follow.

molecule	quantity_unit	Emax
NCC1CC1c1cc(Cl)c(F)cc1OCCF (single isomer, unassigned; (+))	%	39
COc1ccc(Cl)c(Cl)c1C1CC1CN (stereo in doubt; (+)-20f)	%	26
COc1cc(F)c(Cl)cc1C1CC1CN (stereo in doubt; (-)-20c)	%	44
C=CCOc1cc(F)c(Cl)cc1C1CC1CN (single isomer, unassigned; (-))	%	22
COc1cc(F)c(Cl)cc1C1CC1CN (single isomer, unassigned; (+))	%	59
C=CCOc1cc(F)c(Cl)cc1C1CC1CN (single isomer, unassigned; (+))	%	34
COc1ccc(Cl)c(F)c1C1CC1CN (single isomer, unassigned; (-))	%	64
COc1ccc(Cl)c(Cl)c1C1CC1CN (single isomer, unassigned; (-))	%	53
NCC1CC1c1cc(Cl)c(F)cc1OCCF (stereo in doubt; (-)-21c)	%	26
C=CCOc1ccc(F)c(F)c1C1CC1CN (single isomer, unassigned; (-))	%	26
COc1cc(F)c(F)cc1C1CC1CN (single isomer, unassigned; (-))	%	59
COc1cc(F)c(F)cc1C1CC1CN (single isomer, unassigned; (+))	%	69
COc1ccc(F)c(F)c1C1CC1CN (single isomer, unassigned; (+))	%	64
C=CCOc1ccc(F)c(F)c1C1CC1CN (single isomer, unassigned; (+))	%	35
COc1ccc(F)c(F)c1C1CC1CN (stereo in doubt; (-)-20b)	%	62
COc1ccc(Cl)c(F)c1C1CC1CN (single isomer, unassigned; (+))	%	52

---

- assayed_system: 5-hydroxytryptamine receptor 2A (Homo sapiens, UniProt P28223)
- Sequence (P28223 whole entry): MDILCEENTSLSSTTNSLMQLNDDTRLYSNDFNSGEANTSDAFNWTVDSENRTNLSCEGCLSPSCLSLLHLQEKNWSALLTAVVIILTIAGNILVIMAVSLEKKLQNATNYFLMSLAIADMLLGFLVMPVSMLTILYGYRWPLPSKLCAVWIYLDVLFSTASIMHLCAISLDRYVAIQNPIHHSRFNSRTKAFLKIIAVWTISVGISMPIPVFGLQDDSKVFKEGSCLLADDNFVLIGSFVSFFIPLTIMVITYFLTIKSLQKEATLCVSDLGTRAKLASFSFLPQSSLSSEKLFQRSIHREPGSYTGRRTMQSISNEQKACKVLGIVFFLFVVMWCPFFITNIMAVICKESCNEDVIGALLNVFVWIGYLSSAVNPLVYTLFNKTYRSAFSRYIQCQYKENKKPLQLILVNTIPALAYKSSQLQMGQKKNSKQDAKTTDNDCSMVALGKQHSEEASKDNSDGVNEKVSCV
- protocol_text: Agonist activity at human 5HT2A receptor expressed in Flp-In-293 cells assessed as calcium flux by FLIPR assay relative to 5-HT
- Format: functional, cell-based
Answer False if Emax is under 80%, and True if it is 80% or more.

compound	assayed_system	label_class
COc1ccc(F)c(Cl)c1C1CC1CN (stereo in doubt; (+)-20g)	5-hydroxytryptamine receptor 2A (Homo sapiens, UniProt P28223)	False
COc1cc(F)c(Cl)cc1C1CC1CN (single isomer, unassigned; (+))	5-hydroxytryptamine receptor 2A (Homo sapiens, UniProt P28223)	True
COc1ccc(F)c(Cl)c1C1CC1CN (single isomer, unassigned; (-))	5-hydroxytryptamine receptor 2A (Homo sapiens, UniProt P28223)	False
COc1cc(Cl)c(Cl)cc1C1CC1CN (stereo in doubt; (-)-20e)	5-hydroxytryptamine receptor 2A (Homo sapiens, UniProt P28223)	False
COc1ccc(Cl)c(F)c1C1CC1CN (single isomer, unassigned; (+))	5-hydroxytryptamine receptor 2A (Homo sapiens, UniProt P28223)	True

---

- assayed_system: 5-hydroxytryptamine receptor 6 (Homo sapiens, UniProt P50406)
- Sequence (P50406 whole entry): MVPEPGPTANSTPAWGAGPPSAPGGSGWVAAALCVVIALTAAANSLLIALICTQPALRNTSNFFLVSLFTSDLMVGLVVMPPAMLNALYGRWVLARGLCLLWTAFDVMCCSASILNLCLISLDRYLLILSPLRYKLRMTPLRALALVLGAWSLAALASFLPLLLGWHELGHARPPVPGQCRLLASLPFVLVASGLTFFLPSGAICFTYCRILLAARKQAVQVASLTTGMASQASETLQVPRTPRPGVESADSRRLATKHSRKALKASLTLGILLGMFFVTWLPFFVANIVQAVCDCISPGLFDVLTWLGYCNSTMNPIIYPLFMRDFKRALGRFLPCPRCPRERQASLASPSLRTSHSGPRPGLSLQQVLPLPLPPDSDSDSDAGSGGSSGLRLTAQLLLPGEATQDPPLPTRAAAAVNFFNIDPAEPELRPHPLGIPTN
- protocol_text: Binding affinity to human 5HT6 receptor by radioligand binding assay
- run_parameters: read-out: Ki
pKi: −log10 of the molar value.
quantity: pKi

compound	val
C=CCOc1cc(F)c(F)cc1C1CC1CN.Cl (single isomer, unassigned; (+))	6.95

---

- assayed_system: 5-hydroxytryptamine receptor 1A (Homo sapiens)
- Sequence (P08908 whole entry): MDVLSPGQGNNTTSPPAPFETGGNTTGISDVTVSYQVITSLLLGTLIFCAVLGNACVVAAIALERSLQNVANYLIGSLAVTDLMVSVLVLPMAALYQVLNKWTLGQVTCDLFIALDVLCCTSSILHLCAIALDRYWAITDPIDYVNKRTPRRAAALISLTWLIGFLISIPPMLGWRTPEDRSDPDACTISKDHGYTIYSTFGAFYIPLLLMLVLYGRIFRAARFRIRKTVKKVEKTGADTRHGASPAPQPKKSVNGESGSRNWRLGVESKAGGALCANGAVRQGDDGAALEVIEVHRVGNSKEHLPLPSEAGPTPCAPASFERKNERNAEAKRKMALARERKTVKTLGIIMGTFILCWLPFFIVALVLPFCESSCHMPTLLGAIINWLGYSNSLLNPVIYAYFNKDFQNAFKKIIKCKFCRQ
- protocol_text: Binding affinity to human 5HT1A receptor by radioligand binding assay
- run_parameters: read-out: Ki
pKi: −log10 of the molar value.
quantity: pKi

compound	quantity	val
C=CCOc1cc(F)c(F)cc1C1CC1CN.Cl (single isomer, unassigned; (+))	pKi	6.12

---

- protocol_text: Binding affinity to sigma 2 receptor (unknown origin) by radioligand binding assay
- Parameters: species or system Homo sapiens
pKi: −log10 of the molar value.
quantity: pKi

compound	quantity	val
C=CCOc1cc(F)c(F)cc1C1CC1CN.Cl (single isomer, unassigned; (+))	pKi	5.68

---

- assayed_system: Sodium-dependent serotonin transporter (Homo sapiens, UniProt P31645)
- Sequence (P31645 whole entry): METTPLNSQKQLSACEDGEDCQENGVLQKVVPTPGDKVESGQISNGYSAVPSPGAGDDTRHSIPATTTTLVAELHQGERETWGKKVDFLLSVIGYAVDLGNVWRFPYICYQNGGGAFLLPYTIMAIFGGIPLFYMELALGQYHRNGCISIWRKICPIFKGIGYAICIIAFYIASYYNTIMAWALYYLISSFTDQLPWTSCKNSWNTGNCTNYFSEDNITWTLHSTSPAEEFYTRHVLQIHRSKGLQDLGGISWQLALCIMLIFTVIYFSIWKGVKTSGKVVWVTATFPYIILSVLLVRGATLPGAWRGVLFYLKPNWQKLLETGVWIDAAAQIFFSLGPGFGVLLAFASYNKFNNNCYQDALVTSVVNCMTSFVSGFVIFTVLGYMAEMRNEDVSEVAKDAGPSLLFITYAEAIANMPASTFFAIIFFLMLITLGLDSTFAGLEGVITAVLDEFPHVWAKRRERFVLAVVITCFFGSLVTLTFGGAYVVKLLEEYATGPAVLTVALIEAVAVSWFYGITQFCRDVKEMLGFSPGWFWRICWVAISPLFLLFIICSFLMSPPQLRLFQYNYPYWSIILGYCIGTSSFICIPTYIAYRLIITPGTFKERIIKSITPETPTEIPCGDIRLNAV
quantity: Ki (nM)

compound	val
C=CCOc1cc(F)c(F)cc1C1CC1CN.Cl (single isomer, unassigned; (+))	1260

---

- assayed_system: 5-hydroxytryptamine receptor 2B (Homo sapiens, UniProt P41595)
- Sequence (P41595 whole entry): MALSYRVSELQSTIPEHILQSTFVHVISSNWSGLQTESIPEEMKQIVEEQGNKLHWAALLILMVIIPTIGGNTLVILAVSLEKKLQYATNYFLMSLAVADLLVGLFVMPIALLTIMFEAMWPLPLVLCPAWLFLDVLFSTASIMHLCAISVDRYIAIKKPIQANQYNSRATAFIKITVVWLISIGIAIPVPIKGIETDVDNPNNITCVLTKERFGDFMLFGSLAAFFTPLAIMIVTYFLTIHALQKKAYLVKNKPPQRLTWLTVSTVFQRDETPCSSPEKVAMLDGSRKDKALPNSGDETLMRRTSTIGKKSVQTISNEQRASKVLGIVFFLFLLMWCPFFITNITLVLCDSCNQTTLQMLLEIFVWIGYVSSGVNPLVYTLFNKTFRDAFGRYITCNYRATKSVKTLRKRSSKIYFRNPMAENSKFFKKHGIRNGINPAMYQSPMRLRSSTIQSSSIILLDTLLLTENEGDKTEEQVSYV
pEC50: −log10 of the molar value.
Entries and their measured pEC50 follow.
quantity: pEC50

compound	val
COc1cc(F)c(Cl)cc1C1CC1CN (single isomer, unassigned; (+))	7.60
COc1ccc(F)c(F)c1C1CC1CN (single isomer, unassigned; (+))	6.68
COc1cc(F)c(Cl)cc1C1CC1CN (stereo in doubt; (-)-20c)	6.48
COc1ccc(Cl)c(F)c1C1CC1CN (single isomer, unassigned; (+))	6.45
C=CCOc1cc(F)c(Cl)cc1C1CC1CN (single isomer, unassigned; (+))	6.00

---

- assayed_system: 5-hydroxytryptamine receptor 2C (Homo sapiens)
- Sequence (P28335 whole entry): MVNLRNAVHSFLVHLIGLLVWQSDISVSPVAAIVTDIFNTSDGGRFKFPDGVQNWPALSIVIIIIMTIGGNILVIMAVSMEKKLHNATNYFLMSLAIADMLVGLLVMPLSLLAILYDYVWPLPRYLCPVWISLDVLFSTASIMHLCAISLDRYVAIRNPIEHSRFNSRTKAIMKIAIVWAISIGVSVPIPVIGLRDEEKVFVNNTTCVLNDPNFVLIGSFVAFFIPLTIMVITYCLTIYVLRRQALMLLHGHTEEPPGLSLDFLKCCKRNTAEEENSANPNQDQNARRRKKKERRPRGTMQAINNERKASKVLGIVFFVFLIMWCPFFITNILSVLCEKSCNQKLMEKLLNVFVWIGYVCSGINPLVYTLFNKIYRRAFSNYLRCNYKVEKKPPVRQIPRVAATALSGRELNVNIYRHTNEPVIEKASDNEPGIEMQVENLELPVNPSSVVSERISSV
- protocol_text: Agonist activity at recombinant human 5HT2C-INI receptor expressed in Flp-In-293 cells assessed as calcium flux by FLIPR assay
- Type: functional, cell-based
- run_parameters: read-out: EC50
Returns: string. Value is Condition met if measured EC50 is below 10 nM, and Condition not met if it is greater than or equal to it.

molecule	label_class
COc1ccc(Cl)c(F)c1C1CC1CN (single isomer, unassigned; (+))	Condition not met
C=CCOc1ccc(F)c(Cl)c1C1CC1CN (single isomer, unassigned; (-))	Condition not met
COc1cc(F)c(Cl)cc1C1CC1CN (stereo in doubt; (-)-20c)	Condition not met
COc1cc(F)c(Cl)cc1C1CC1CN (single isomer, unassigned; (+))	Condition met
COc1ccc(F)c(F)c1C1CC1CN (single isomer, unassigned; (+))	Condition met
